Each record here notes measured RAM network inhibition.
measurementDescription: RAM signaling pathway blockade in yeast – S. cerevisiae, Pdr1DBD-CYC8 efflux-inhibited sensitized strain, primary screen (AID 1298);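 also: 0% = DMSO untreated cells without growth and 100% = 10 µM 1-NA-PP1 full growth; higher means more yeast growth rescued from 5-FOA killing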
experimentalConditions: S. cerevisiae cbk1-as DSE1-URA3 strain, 5-FOA growth OD615, 2 d; at 50 µM; stronger effect = higher value
Write it as a number; the unit % goes unstated.

• COc1cc(C(=O)N2CCN(c3cc(Cl)ccc3Cl)CC2)cc(OC)c1OC = 2.03
• CCOc1ccccc1NC(=O)CSc1nnc(Cc2cccn2C)n1-c1ccc(F)cc1 = 4.07
• CC(=O)NCCc1ccc(S(=O)(=O)N2CCCC2)cc1 = 3.82
• CCNc1ccc(C(=O)OCC)cc1NC(=O)c1cc(S(=O)(=O)N2CCOCC2)ccc1C = 8.14
• CCN1CCN(c2nc3c(c(=O)[nH]c(=O)n3C)n2CCSc2nc3ccccc3s2)CC1 = -0.84

Name the recorded RAM network inhibition of the item O=C(c1ccc2snnc2c1)N1CCOCC1 in your answer.
1.07

====

measurementDescription: RAM signaling pathway blockade in yeast – S. cerevisiae, Pdr1DBD-CYC8 efflux-inhibited sensitized strain, primary screen (AID 1298);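 also: 0% = DMSO untreated cells without growth and 100% = 10 µM 1-NA-PP1 full growth; higher means more yeast growth rescued from 5-FOA killing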
experimentalConditions: S. cerevisiae cbk1-as DSE1-URA3 strain, 5-FOA growth OD615, 2 d; at 50 µM; stronger effect = higher value
reportedEndpoint: RAM network inhibition (%)
Give just the numeric value; % need not be written.

- CCN1CCN(C(=O)c2cn(CC)c3ccc(S(=O)(=O)N(C)C)cc3c2=O)CC1: -1.09
- CCOc1cc(CN2CCN(c3cccc(C(F)(F)F)c3)CC2)ccc1O: 0.97
- CCOC(=O)CN1C(=O)C(=O)c2cccc(C)c21: 1.05
- c1ccc2c(c1)Cc1cc(CN3CCOCC3)ccc1-2: 0.21
- CN1CCN(Cc2nc3c(c(=O)[nH]c(=O)n3C)n2CCc2ccccc2)CC1: 1.56
- CCOC(=O)Cn1c(CCC(=O)O)ccc1-c1ccc(F)cc1: 2.74
- CC(=O)N1CCc2c(sc(NC(=O)c3ccc(S(=O)(=O)N(C)C)cc3)c2C#N)C1: 1.67
- Cc1cc(NC(=O)CSc2cn(CCNC(=O)c3ccc(Cl)cc3)c3ccccc23)no1: 3.24
- CCN1C(=O)c2ccccc2S(=O)c2ccc(C(=O)NC3CC3)cc21 (stereo not given): 1.98

Report measured RAM network inhibition; entry is CCn1c(=O)c2cc(C(=O)Nc3cc(C)on3)sc2c2ccccc21
4.19

====

measurementDescription: MRP1 drug-resistance reversers in H69AR cells – cell-based, doxorubicin co-treatment, pilot screen (AID 601)
experimentalConditions: H69AR cells, CellTiter-Glo, 72 h; compound alone cytotoxicity; at 10 µM
reportedEndpoint: viability (%)
The answer is to be given in %; state only the numeric part.

- Cc1cc2ccccc2n1CCNC(=O)C1CC1: 88.1
- COc1ccc(C2CC(c3cccc(C)c3)n3ncnc3N2)cc1 (centres undefined): 91.4
- O=C(Nc1nc2c(s1)CCCC2)C1COc2ccccc2O1 (centres undefined): 88.3

Moving on to another molecule below.
Return the recorded viability value; entry: COc1ccc(NC(=O)c2cc(C3CC3)on2)c(OC)c1
91.2

====

Recorded viability values for a group of molecules are listed next.
measurementDescription: H69AR cell proliferation blockers – human, duplicate replicates, primary screen (AID 580);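 also: 100% = mean luminescence of untreated wells and 0% = no signal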
experimentalConditions: H69AR lung tumor cells viability, ATP luminescence, 72 h; at 10 µM; stronger effect = lower value
Give just the numeric value; % need not be written.

Before answering, review these 5 worked examples.
- Cc1ccc2oc(=O)c3cnn(CC(=O)NCCC(C)C)c3c2c1: 88.1
- O=C(Cn1ncc2c(=O)oc3ccccc3c21)NCCCN1CCCC1=O: 101
- O=C(NC1CCCC1)C1CCCN(S(=O)(=O)c2cccc3cccnc23)C1 (stereo unspecified): 98.8
- OC(CNCCc1ccccc1)c1ccccc1 (stereo unspecified): 91.2
- CCOc1ccc(-c2nnc3sc(-c4c(OC)cccc4OC)nn23)cc1: 86.2

From here, focus on the item given below.
Provide measured viability value, entry: Cc1ccc(C)c2[nH]c(=O)c(CCNC(=O)c3ccc(S(=O)(=O)N(C)C)cc3)cc12
82.3
